experiment: recombinant UMI read abundance after kanamycin selection (control-corrected) (log10(CPM+1)); higher = more efficient recombination; extreme values may be limits of the assay; sequences stand for … in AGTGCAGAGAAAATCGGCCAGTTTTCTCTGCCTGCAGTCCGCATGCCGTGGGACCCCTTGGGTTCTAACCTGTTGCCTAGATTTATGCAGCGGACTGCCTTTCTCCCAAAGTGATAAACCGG…AGGTTGGTTTCACT; site = the 11-nt donor;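 note: IS621 bridge recombinase in Escherichia coli cells against a fixed T5 target plasmid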
recorded metric: recombinant UMI read abundance (log10)
Just the number, please.

For record ACAGTATCATGGACCGGTTTTCCCGGTAATCCGTATTTGGT (site ACAGTATCTAC) the listed recombinant UMI read abundance (log10) is 2.61

For record AGGACTCCATGGACCGGTTTTCCCGGTAATCCGTATTTGAC (site AGGACTTCTGT) the listed recombinant UMI read abundance (log10) is 0

For record ATGTCGGCATGGACCGGTTTTCCCGGTAATCCGTATTTGTC (site ATGTCGGCTGA) the listed recombinant UMI read abundance (log10) is 2.23

For record CGATCATCATGGACCGGTTTTCCCGGTAATCCGTATTTGAT (site CGATCATCTAG) the listed recombinant UMI read abundance (log10) is 0

For record CGGAAACCATGGACCGGTTTTCCCGGTAATCCGTATTTGTA (site CGGAAACCTTA) the listed recombinant UMI read abundance (log10) is 0

For record AGGTCCCCATGGACCGGTTTTCCCGGTAATCCGTATTTGTG (site AGGTTCCCTCA) the listed recombinant UMI read abundance (log10) is 0.00496

For record GGCGCACCATGGACCGGTTTTCCCGGTAATCCGTATTTGCA (site GGTGCACCTTG) the listed recombinant UMI read abundance (log10) is 0.00254

For record CACGGTCCATGGACCGGTTTTCCCGGTAATCCGTATTTGCA (site CCCGGTCCTTG) the listed recombinant UMI read abundance (log10) is 0

For record TAATGGCCATGGACCGGTTTTCCCGGTAATCCGTATTTGAT (site TAATGGCCTAT) the listed recombinant UMI read abundance (log10) is 0.00507

---

assay: recombinant UMI read abundance after kanamycin selection (control-corrected) (log10(CPM+1)); higher = more efficient recombination; extreme values may be limits of the assay; sequences stand for … in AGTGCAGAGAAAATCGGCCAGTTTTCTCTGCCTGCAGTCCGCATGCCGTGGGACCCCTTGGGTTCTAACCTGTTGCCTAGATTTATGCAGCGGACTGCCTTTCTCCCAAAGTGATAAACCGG…AGGTTGGTTTCACT; site = the 11-nt donor
recorded metric: recombinant UMI read abundance (log10)
Just the number, please.

For record CTGCTACCATGGACCGGTTTTCCCGGTAATCCGTATTTGCG (site CTGCTACCTGG) the listed recombinant UMI read abundance (log10) is 0

For record TTATTCCCATGGACCGGTTTTCCCGGTAATCCGTATTTGCA (site TTATTCCCTTG) the listed recombinant UMI read abundance (log10) is 0

For record ACACAAACATGGACCGGTTTTCCCGGTAATCCGTATTTGTC (site ACACCAACTGA) the listed recombinant UMI read abundance (log10) is 0

For record TCCACCGCATGGACCGGTTTTCCCGGTAATCCGTATTTGTG (site TCCACCGCTCT) the listed recombinant UMI read abundance (log10) is 0.0682

For record GATGATCCATGGACCGGTTTTCCCGGTAATCCGTATTTGCT (site GATAATCCTAG) the listed recombinant UMI read abundance (log10) is 0

For record CAATCGGCATGGACCGGTTTTCCCGGTAATCCGTATTTGAC (site CAATCGGCTGT) the listed recombinant UMI read abundance (log10) is 1.77

For record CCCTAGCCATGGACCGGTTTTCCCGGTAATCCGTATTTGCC (site CCCTATCCTGG) the listed recombinant UMI read abundance (log10) is 0

For record CAATGCTCATGGACCGGTTTTCCCGGTAATCCGTATTTGCA (site CAATGCTCTTA) the listed recombinant UMI read abundance (log10) is 1.1

For record ACTAGCACATGGACCGGTTTTCCCGGTAATCCGTATTTGAG (site ACTAGAACTCT) the listed recombinant UMI read abundance (log10) is 0.495

For record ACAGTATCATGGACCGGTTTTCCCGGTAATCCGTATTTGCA (site ACAGTATCTCG) the listed recombinant UMI read abundance (log10) is 1.77

For record AGCTAACCATGGACCGGTTTTCCCGGTAATCCGTATTTGAA (site AGCTAACCTTT) the listed recombinant UMI read abundance (log10) is 0.00558

For record ATTTAAACATGGACCGGTTTTCCCGGTAATCCGTATTTGAC (site ATTTAAACTGT) the listed recombinant UMI read abundance (log10) is 1.18

For record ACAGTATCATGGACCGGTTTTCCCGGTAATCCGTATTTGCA (site ACAATCTCTTG) the listed recombinant UMI read abundance (log10) is 0

For record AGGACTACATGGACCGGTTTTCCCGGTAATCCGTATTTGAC (site GGGACTACTGT) the listed recombinant UMI read abundance (log10) is 0

For record GAGTTGTCATGGACCGGTTTTCCCGGTAATCCGTATTTGTT (site GAGTTGTCTAA) the listed recombinant UMI read abundance (log10) is 2.01

For record GCTACTGCATGGACCGGTTTTCCCGGTAATCCGTATTTGCG (site GCTACTGCTCG) the listed recombinant UMI read abundance (log10) is 1.27

For record TGGAATCCATGGACCGGTTTTCCCGGTAATCCGTATTTGGT (site TGGAATCCTAC) the listed recombinant UMI read abundance (log10) is 0

For record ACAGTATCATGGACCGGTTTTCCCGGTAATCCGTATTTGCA (site ACAGGATCTTG) the listed recombinant UMI read abundance (log10) is 1.01

For record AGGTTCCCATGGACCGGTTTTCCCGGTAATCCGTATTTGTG (site AGGTCCCCTCA) the listed recombinant UMI read abundance (log10) is 0.019

For record CAATTCACATGGACCGGTTTTCCCGGTAATCCGTATTTGCT (site CAATTCGCTAG) the listed recombinant UMI read abundance (log10) is 0.587

For record GATACTGCATGGACCGGTTTTCCCGGTAATCCGTATTTGCC (site GCTACTGCTGG) the listed recombinant UMI read abundance (log10) is 0.748

For record CTCCCTACATGGACCGGTTTTCCCGGTAATCCGTATTTGGG (site CTCCCTACTCG) the listed recombinant UMI read abundance (log10) is 0.00544

For record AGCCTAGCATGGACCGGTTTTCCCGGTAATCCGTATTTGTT (site AGTCTAGCTAA) the listed recombinant UMI read abundance (log10) is 0.0113

For record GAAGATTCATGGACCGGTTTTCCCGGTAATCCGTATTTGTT (site GAACATTCTAA) the listed recombinant UMI read abundance (log10) is 0

For record GATTATGCATGGACCGGTTTTCCCGGTAATCCGTATTTGCT (site GATTATGCTAG) the listed recombinant UMI read abundance (log10) is 2.13

For record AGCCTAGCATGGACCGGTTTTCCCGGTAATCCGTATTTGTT (site AGCCTAGCTGA) the listed recombinant UMI read abundance (log10) is 0

For record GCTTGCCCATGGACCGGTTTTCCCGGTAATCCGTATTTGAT (site GCTTCCCCTAT) the listed recombinant UMI read abundance (log10) is 0.0974

For record AGCGCGACATGGACCGGTTTTCCCGGTAATCCGTATTTGAG (site AGCGCGACTCT) the listed recombinant UMI read abundance (log10) is 1.27

For record TAACCTTCATGGACCGGTTTTCCCGGTAATCCGTATTTGGT (site TAACCTTCTAC) the listed recombinant UMI read abundance (log10) is 0.00557

For record TGTACAACATGGACCGGTTTTCCCGGTAATCCGTATTTGAC (site TGTACACCTGT) the listed recombinant UMI read abundance (log10) is 0

For record CTAATTACATGGACCGGTTTTCCCGGTAATCCGTATTTGTG (site CTAATTACTCA) the listed recombinant UMI read abundance (log10) is 0.859

For record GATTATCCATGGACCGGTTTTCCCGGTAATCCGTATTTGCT (site GCTTATCCTAG) the listed recombinant UMI read abundance (log10) is 0

For record AAGTCGCCATGGACCGGTTTTCCCGGTAATCCGTATTTGAC (site AAGTCGCCTGT) the listed recombinant UMI read abundance (log10) is 0

For record ACGGTGCCATGGACCGGTTTTCCCGGTAATCCGTATTTGAA (site ACGGTGCCTTT) the listed recombinant UMI read abundance (log10) is 0.00366

For record AAAGCCTCATGGACCGGTTTTCCCGGTAATCCGTATTTGAA (site AAAGCCTCTTT) the listed recombinant UMI read abundance (log10) is 2.63

For record TGGGAATCATGGACCGGTTTTCCCGGTAATCCGTATTTGCG (site TTGGAATCTCG) the listed recombinant UMI read abundance (log10) is 0.459
